Tested on: P388 leukemia ip, CD2F1 mice, survival T/C
protocolDescription: NCI In Vivo Anticancer Drug Screen. Data for tumor model P388 Leukemia (intraperitoneal) in CD2F1 (CDF1) mice
experimentalContext: endpoint: median survival time; dose: 400.0 mg/kg/injection; schedule: Q04DX002 (ip); vehicle: saline with Tween-80; higher = longer survival
Inconclusive results and toxic doses are left out.
T/C listing for selected compounds.

Example cases with answers are listed next.
Give reported T/C value for COc1cc(OC)c(C2c3cc4c(cc3OC(C)(O)C2C)OCO4)c(OC)c1 (configuration not stated)
102 % of control

Give reported T/C value for CNCC(=O)c1ccc(O)c(O)c1N=O
108 % of control

Give reported T/C value for COc1ccc(C2CC(c3cc(C)cc(Br)c3O)=NO2)cc1 (configuration not stated)
92 % of control

***
Give reported T/C value for Cn1c(CCC(=O)O)c(CC(=O)O)c2ccccc21
108 % of control

Give reported T/C value for CC(=O)Oc1cc(OC(C)=O)c2c(c1)C(=O)c1cc(C)cc(OC(C)=O)c1C2=O
90 % of control

Give reported T/C value for CCN(CC)c1ccc2cc(C(=O)NC(=O)Oc3ccccc3)c(=O)oc2c1
87 % of control

Give reported T/C value for O=C(/C=C/c1ccc(OCC2CO2)cc1)c1cc2ccccc2nc1Cl (configuration not stated)
100 % of control

All values here come from PubChem BioAssay AID330.
